Experiment: Plasma pharmacokinetics of Halofuginone hydrobromide in Beagle dogs (Example C)
Settings: male, Beagle, dog, in vivo, sc, 0.03 mg/kg, tmax
Description: Blood samples were collected from the jugular, cephalic, or saphenous veins into tubes containing EDTA at the following time points: 0, 0.5, 1, 2, 4, 8, 12, 24, and 48 h postdose. Blood samples were kept on wet ice until processing. […] Statistical analysis of PK parameters for dogs treated with both enteric and oral solutions were calculated using Excel® spreadsheets. […] Paired differences for each dog were determined by subtracting the summary PK value as follows: […]
Structures can show the parent of a compound that is named as a salt.
test-readout: Tmax (min)
Provide the reading as a plain figure in min.

Report Tmax for O=C(C[C@@H]1NCCC[C@H]1O)Cn1cnc2cc(Br)c(Cl)cc2c1=O [Halofuginone hydrobromide] please.
30
